Target: UniProt Q8IEG9
Sequence (Q8IEG9 19-408): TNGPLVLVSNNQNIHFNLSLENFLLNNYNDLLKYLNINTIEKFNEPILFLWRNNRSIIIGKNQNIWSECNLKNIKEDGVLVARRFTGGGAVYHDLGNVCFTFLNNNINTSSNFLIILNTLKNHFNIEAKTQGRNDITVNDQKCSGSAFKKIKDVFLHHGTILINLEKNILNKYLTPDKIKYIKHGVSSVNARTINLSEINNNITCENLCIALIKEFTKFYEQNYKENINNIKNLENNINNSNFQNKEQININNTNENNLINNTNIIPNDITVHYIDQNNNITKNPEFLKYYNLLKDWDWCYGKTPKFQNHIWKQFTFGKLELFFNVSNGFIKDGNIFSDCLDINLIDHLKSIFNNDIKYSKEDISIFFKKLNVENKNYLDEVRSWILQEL
Assay: biochemical
Type: binding
Details: KD ITC, non-reducing conditions
ENDPOINT: Kd (µM)
Give bare numbers, in µM.

{"columns": ["MOLECULE", "ASSAY_SYSTEM", "Kd, µM"],
 "data": [
  ["Nc1ncnc2c1ncn2[C@@H]1O[C@H](COP(=O)(O)OC(=O)CCCC[C@@H]2CCSS2)[C@@H](O)[C@H]1O", "UniProt Q8IEG9", 0.065]
]}

Continue with the molecule presented below.
Value of measured Kd for the entry Nc1ncnc2c1ncn2[C@@H]1O[C@H](COP(=O)(O)OC(=O)CCCCC(Cl)CCCl)[C@@H](O)[C@H]1O (some centres unmarked) : 0.1
